Value source: paper PMC10668032

Molecular target: SIX1-Q177R homeodomain (human, UniProt Q15475 108-198, Q177R)
Sequence: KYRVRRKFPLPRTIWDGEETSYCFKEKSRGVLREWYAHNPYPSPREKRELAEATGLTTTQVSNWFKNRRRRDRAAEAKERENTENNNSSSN
Assay: universal protein binding microarray; Universal all-10-mer PBM (8x60K, AMADID 030236), 300 nM GST-tagged protein, Alexa Fluor 488 anti-GST; buffer, salt, pH and temperature not stated (as in Berger); high values mean tight binding
Settings: protein: ivt; tags: N-terminal GST; dsDNA, one strand shown
The full ranking holds about 33,000 sequences; the median of “e-score” is about -0.05, and the highest 2% start at about 0.38. This excerpt belongs to a sample that is enriched for the highest values.
Each record here notes measured binding signal.
Write the figure, then the unit, nothing else.

Some solved cases for reference:
sequence_code | binding signal
CCGTGGTA | 0.166 E-score
CACCTTGA | 0.177 E-score
AGTACCCA | 0.175 E-score
ACCGGGGG | 0.238 E-score
CCGCCGTA | 0.164 E-score

What binding signal value was documented for this sequence, ATGGAGTG ?
0.274 E-score

What do you have for ACACCCAT ?
0.458 E-score

// same read-out, input: TAACACAA
0.216 E-score

Okay, and CACCAATG ?
0.222 E-score

Okay, and CCACCCCC ?
0.209 E-score

Then GGTAACAC ?
0.432 E-score

Then this sequence: CGTAACCC
0.225 E-score

Also need ACCTGGTG , thanks.
0.322 E-score

TCACCCCA ?
0.184 E-score

# repeat for TAGCACCA
0.224 E-score

And CACACTCA ?
0.21 E-score

Let us now turn to CCGTGTTA
0.424 E-score

Let us now turn to TACACTCA
0.402 E-score

Consider next the sequence ACTAACAC in the same way.
0.427 E-score

Please answer likewise for GTGTTCCA
0.361 E-score

And the next one, AGTAACAC ?
0.424 E-score

How about CACACTAA ?
0.204 E-score

Same read-out for GACACTCC ?
0.434 E-score

Do the same for GGGTAACC please
0.196 E-score

* * *

Target: SIX1-Q177R homeodomain (human, UniProt Q15475 108-198, Q177R)
Sequence: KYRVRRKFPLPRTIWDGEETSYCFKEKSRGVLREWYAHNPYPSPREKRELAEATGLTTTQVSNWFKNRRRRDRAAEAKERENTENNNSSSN
Experiment: universal protein binding microarray; Universal all-10-mer PBM (8x60K, AMADID 030236), 300 nM GST-tagged protein, Alexa Fluor 488 anti-GST; buffer, salt, pH and temperature not stated (as in Berger); high values mean tight binding
Details: protein: ivt; tags: N-terminal GST; dsDNA, one strand shown
The full ranking holds about 33,000 sequences; the median of “e-score” is about -0.05, and the highest 2% start at about 0.38. Only a selection was taken, and the highest values are over-represented in it overall.
Label 1 when binding signal >= 0.3 E-score; otherwise 0.

Examples with answers:
sequence_code | tgt | class_assignment
CACACCCA | SIX1-Q177R homeodomain (human, UniProt Q15475 108-198, Q177R) | 1
CACTCTTA | SIX1-Q177R homeodomain (human, UniProt Q15475 108-198, Q177R) | 0
TCACTACA | SIX1-Q177R homeodomain (human, UniProt Q15475 108-198, Q177R) | 0
ATACACAC | SIX1-Q177R homeodomain (human, UniProt Q15475 108-198, Q177R) | 1
ACACCGCC | SIX1-Q177R homeodomain (human, UniProt Q15475 108-198, Q177R) | 1
ACACTATC | SIX1-Q177R homeodomain (human, UniProt Q15475 108-198, Q177R) | 1

# bool: binding signal of CCCGCACC >= 0.3 E-score
0

Would you kindly repeat that for ACACACCT ?
1

Now the same for CGCGTCAG
0

Entry to check: CACTCTGA
0

Okay, and ACACACGT ?
0

Same question, CACCGGGG this time
0

Now try ACACACCG .
1
